Tested on: IGROV1 ovarian
experiment.notes: NCI tumour cell line growth inhibition, 48 h
Where a SMILES comes first, the peptide text is derived from it. [ ]: non-standard residue; d: D form. Phe(4-NO2) = N[CH](Cc1ccc([N+](=O)[O-])cc1)C(=O)O
In this section we review reported TGI values for a set of compounds.

{"columns": ["compound", "TGI"],
 "data": [
  ["CCN1C(=O)N(CC)C2C1NN=c1s/c(=C\\c3ccco3)c(=O)n12 (stereo not given)", "> 100 µM"],
  ["O=C(CC(C(=O)c1cccs1)c1ccsc1)c1ccccc1 (stereo not given)", "> 100 µM"],
  ["O=C1C=CC2(C=C1)CCNC1=C2C(=O)c2ccccc2C1=O", "> 100 µM"],
  ["COc1cc2c(cc1OC)CC(=O)Nc1cc(OC)c(OC)cc1CC2", "> 100 µM"],
  ["N#Cc1c(N)n2c(nc1=Nc1ccc(Cl)cc1)sc1cc(Cl)ccc12", "> 100 µM"],
  ["CC(C)CC(=O)NC(C(=O)NC(C(=O)NC(CC(C)C)C(O)CC(=O)NC(C)C(=O)NC(CC(C)C)C(O)CC(=O)O)C(C)C)C(C)C (stereo not given)", "> 100 µM"],
  ["O=C(Nc1cccc(C(F)(F)F)c1)C(=O)C1NC(=S)NC1=O (stereo not given)", "> 100 µM"],
  ["c1ccc(C(NC2=NCCO2)c2ccccc2)cc1", "> 10 µM"],
  ["O=C(OC1CCC2OOC1O2)c1ccc([N+](=O)[O-])cc1 (stereo not given)", "> 100 µM"],
  ["Cc1cc(C)n(-c2ccnc3cc(Cl)ccc23)n1", "> 100 µM"],
  ["COc1cc(/C=N\\c2nc(-c3ccc(NS(=O)(=O)c4ccc(Cl)c(OC)c4)cc3)cs2)ccc1O", "> 100 µM"],
  ["COc1cc(C(=O)N2CCN(c3ccccc3)CC2)c2ccccc2n1", "> 100 µM"],
  ["CC(NC(=O)C(Cc1ccc([N+](=O)[O-])cc1)NC(=O)C(N)CCCCN)C(=O)NC(Cc1ccc([N+](=O)[O-])cc1)C(N)=O (stereo not given) (H-K[Phe(4-NO2)]A[Phe(4-NO2)]-NH2; configuration not given here)", "> 100 µM"],
  ["COc1ccc(Cn2cc3c(c2-c2ccccc2)CCc2cnoc2-3)cc1OC", "> 100 µM"],
  ["CCOC(=O)C(N=C(c1ccccc1)c1ccccc1)N(C(=O)OC(C)(C)C)C(=O)OC(C)(C)C (stereo not given)", "> 100 µM"],
  ["CCOC(=O)C(C(=O)OCC)c1ccc([N+](=O)[O-])o1", "42.1 µM"],
  ["O=C(Nc1ccc(-n2cc(-c3ccncc3)c(-c3ccc(O)c(Cl)c3)n2)cc1)Nc1ccc(Cl)c(C(F)(F)F)c1", "30.3 µM"],
  ["N=C(N)SCc1c2ccccc2c(CSC(=N)N)c2ccccc12", "78.4 µM"],
  ["OCCCNc1ncnc2[nH]ncc12", "> 100 µM"],
  ["CC(N)(/C=C/c1ccccc1)C(=O)O (stereo not given)", "> 100 µM"],
  ["Cc1nc(N2N=C(c3ccc(Cl)cc3)CCC2=O)sc1[N+](=O)[O-]", "> 100 µM"],
  ["COC(=O)c1ccccc1N1C(=O)Cc2ccccc2C1=O", "> 100 µM"],
  ["CCOC(=O)NC/C=C/COC1CCCCO1 (stereo not given)", "> 100 µM"],
  ["N#Cc1ccc(CSC2=C(c3ccc(Cl)cc3)S/C(=C3\\SC(SCc4ccc(C#N)cc4)=C(c4ccc(Cl)cc4)S3)S2)cc1", "> 100 µM"],
  ["COc1ccc2c(O)c(/C=C3\\N=Nc4ccccc43)oc2c1C[C@@H]1CCNC[C@H]1F", "26.2 µM"],
  ["Cc1ccc(-c2n[nH]c(=O)n2NC(=O)c2ccccc2C(=O)O)cc1", "> 100 µM"],
  ["CCOC(=O)C(Cc1cn(C(C)=O)c2ccccc12)P(=O)(OCC)OCC (stereo not given)", "> 100 µM"],
  ["C[C@@H](NC(=O)/C(C#N)=C/c1ccc([N+](=O)[O-])cc1)c1ccccc1", "8.13 µM"],
  ["CC(=O)C1Cn2c(=O)c3cc4ccccc4cc3c(=O)n2C=C1C (stereo not given)", "> 100 µM"],
  ["CN(C)CCCNC(=O)CCNC(=O)c1cc(NC(=O)c2cc(NC(=O)c3cc(NC(=O)c4nccn4C)cn3C)cn2C)cn1C", "> 100 µM"],
  ["COc1ccc(Nc2cc(C)nc(NCc3ccccc3)n2)cc1", "23.4 µM"],
  ["COc1ccc2cc(C(=O)/C=C/c3ccc(N(C)C)cc3)ccc2c1", "> 100 µM"],
  ["Clc1ccc(Nc2ccnc(N3CCN(c4ccnc5cc(Cl)ccc45)CC3)n2)cc1", "> 100 µM"],
  ["O=C(c1nc2ccccc2[nH]c1=O)C(O)c1ccco1 (stereo not given)", "> 100 µM"],
  ["O=[N+]([O-])c1ccc(C2=Nn3c(nnc3-c3ccc(Cl)cc3)SC2)o1", "17.1 µM"],
  ["N#Cc1cc([N+](=O)[O-])ccc1NC(=O)/C(=N\\NC(=O)c1ccncc1)C(c1cnc2ccc([N+](=O)[O-])cc2n1)[N+](=O)[O-] (stereo not given)", "14.2 µM"],
  ["CC1CC/C(=C\\c2ccc(N(C)C)cc2)C2=C1C(c1ccc(N(C)C)cc1)NC(=S)N2 (stereo not given)", "> 100 µM"],
  ["Cc1ccc(NC(=O)c2cc3ccccc3c(N=Nc3cc(S(=O)(=O)O)ccc3O)c2O)c(C)c1", "> 100 µM"],
  ["COc1cc2c(c(OC)c1OC)-c1ccc(OC)c(=O)cc1[C@@H](NC(C)=O)CC2", "> 100 µM"],
  ["C[C@@H]1CCC([C@@H](C)[C@H]2CC[C@H]3[C@@H]4CC[C@H]5C[C@@H](O)CC[C@]5(C)[C@H]4CC[C@]23C)=NC1", "> 100 µM"]
]}
